Numbers sourced from patent US20020082419A1.

Recorded Transactivation Assay Afficacy (% of RA activity) RARα values for a group of compounds are listed next.
- Measured Target: RARα (Homo sapiens, UniProt P10276)
- Construct: expressed in transfected cells; host or cells: CV1 cells
- Sequence (P10276 whole entry, species assumed): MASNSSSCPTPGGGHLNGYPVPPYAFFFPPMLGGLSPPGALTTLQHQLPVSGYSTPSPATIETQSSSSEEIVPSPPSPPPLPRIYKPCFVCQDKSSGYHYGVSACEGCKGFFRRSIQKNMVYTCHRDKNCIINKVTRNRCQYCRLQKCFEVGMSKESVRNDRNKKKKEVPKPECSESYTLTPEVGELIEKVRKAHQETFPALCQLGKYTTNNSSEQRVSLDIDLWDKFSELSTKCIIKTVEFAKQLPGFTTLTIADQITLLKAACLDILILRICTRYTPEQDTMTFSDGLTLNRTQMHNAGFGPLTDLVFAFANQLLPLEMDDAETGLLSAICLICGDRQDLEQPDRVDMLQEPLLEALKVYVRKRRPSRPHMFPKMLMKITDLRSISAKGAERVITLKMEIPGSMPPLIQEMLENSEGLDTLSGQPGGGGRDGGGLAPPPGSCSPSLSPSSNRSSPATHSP
- Assay Name: Holoreceptor transactivation assay, RARα
- Format: cell-based
- Measurement Context: relative to all trans retinoic acid
- Protocol: A description of the holoreceptor transactivation assay is also provided below. (8). […] (8, 9). […] A β-galactosidase (50 ng) expression vector was used as an internal control in the transfections to normalize for variations in transfection efficiency. The cells were transfected in triplicate for 6 hours, followed by incubation with retinoids for 36 hours, and the extracts were assayed for luciferase and β-galactosidase activities. […]

>>> result("CC(/C=C/c1ccccc1-c1ccc2c(c1)C(C)(C)CCC2(C)C)=C\\C(=O)O [Compound 9]")
"2.0 % of RA activity"
>>> result("CC(C=CC1CC1(C)c1ccc2c(c1)C(C)(C)CCO2)=CC(=O)O (stereo not shown) [Compound 21]")
"4.0 % of RA activity"
>>> result("CC(C=CC1CC1(C)c1ccc2c(c1)C(C)(C)CCS2)=CC(=O)O (stereo not shown) [Compound 17]")
"30 % of RA activity"

With those in mind, consider the next compound.
Entry CC(C=CC1CC1(C)c1cc2c(cc1C)C(C)(C)CCC2(C)C)=CC(=O)O (stereo not shown) [Compound 13] — recorded Transactivation Assay Afficacy (% of RA activity) RARα = 0.0 % of RA activity

====

- Measured Target: RXRα (Homo sapiens)
- Sequence (P19793 1-462): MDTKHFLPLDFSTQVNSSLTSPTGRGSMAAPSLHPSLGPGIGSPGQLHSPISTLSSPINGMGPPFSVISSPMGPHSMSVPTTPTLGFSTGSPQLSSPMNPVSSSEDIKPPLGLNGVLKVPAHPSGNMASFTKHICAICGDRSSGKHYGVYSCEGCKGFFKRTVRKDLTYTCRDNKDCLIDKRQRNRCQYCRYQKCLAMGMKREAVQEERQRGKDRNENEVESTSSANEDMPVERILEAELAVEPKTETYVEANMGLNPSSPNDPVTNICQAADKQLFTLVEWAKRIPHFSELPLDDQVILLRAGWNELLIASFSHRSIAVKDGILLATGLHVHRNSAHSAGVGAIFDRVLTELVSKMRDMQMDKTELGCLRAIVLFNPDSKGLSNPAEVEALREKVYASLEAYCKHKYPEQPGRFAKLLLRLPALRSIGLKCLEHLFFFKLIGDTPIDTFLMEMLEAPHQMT
Measured Metric: pKd
# pKd: negative log10 of molar concentration; output just the value

Record CC(C=CC1CC1(C)c1ccc2c(c1)C(C)(C)CCO2)=CC(=O)O (stereo not shown) has RXRα (Homo sapiens) pKd equal to 8.30

====

- Measured Target: RARΓ (Homo sapiens, UniProt P13631)
- Construct: expressed in transfected cells; host or cells: CV1 cells
- Sequence (P13631 whole entry, species assumed): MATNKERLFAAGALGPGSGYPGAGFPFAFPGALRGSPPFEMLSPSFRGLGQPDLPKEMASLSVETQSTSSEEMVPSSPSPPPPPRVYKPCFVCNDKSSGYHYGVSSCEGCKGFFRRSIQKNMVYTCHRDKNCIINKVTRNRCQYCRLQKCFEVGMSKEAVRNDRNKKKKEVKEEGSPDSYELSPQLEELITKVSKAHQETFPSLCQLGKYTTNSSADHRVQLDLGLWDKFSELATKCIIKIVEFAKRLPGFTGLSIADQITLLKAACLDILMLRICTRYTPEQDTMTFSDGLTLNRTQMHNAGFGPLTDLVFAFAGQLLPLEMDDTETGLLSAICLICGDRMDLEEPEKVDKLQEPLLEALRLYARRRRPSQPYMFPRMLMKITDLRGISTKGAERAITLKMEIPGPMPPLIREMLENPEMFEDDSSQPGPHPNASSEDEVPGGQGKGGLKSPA
- Assay Name: Holoreceptor transactivation assay, RARΓ
- Format: cell-based
- Measurement Context: relative to all trans retinoic acid
Measured Metric: Transactivation Assay Afficacy (% of RA activity) RARΓ

Guide cases for Transactivation Assay Afficacy (% of RA activity) RARΓ, answers given:
>>> result("CC(C=CC1CC1(C)c1ccc2c(c1)C(C)(C)CCS2)=CC(=O)O (stereo not shown)")
"41 % of RA activity"
>>> result("CC(/C=C/c1ccccc1-c1ccc2c(c1)C(C)(C)CCC2(C)C)=C\\C(=O)O")
"8.0 % of RA activity"

Entry CC(C=CC1CC1(C)c1ccc2c(c1)C(C)(C)CCO2)=CC(=O)O (stereo not shown) — recorded Transactivation Assay Afficacy (% of RA activity) RARΓ = 14.0 % of RA activity

Entry CC(C=CC1CC1(C)c1cc2c(cc1C)C(C)(C)CCC2(C)C)=CC(=O)O (stereo not shown) — recorded Transactivation Assay Afficacy (% of RA activity) RARΓ = 8.0 % of RA activity
